- target of assay: T1, human M-CSF (human, UniProt P09603 33-255, limits assumed)
- T1 construct: also called M-CSF (human); CSF-1
- T1 sequence: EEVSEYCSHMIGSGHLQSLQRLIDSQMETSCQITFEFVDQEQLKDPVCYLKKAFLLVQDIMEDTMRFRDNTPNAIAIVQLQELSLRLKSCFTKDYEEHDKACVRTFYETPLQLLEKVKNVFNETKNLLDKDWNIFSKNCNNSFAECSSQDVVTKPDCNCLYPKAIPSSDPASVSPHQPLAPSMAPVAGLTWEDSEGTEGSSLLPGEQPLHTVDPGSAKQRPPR
- protocol description: soluble equilibrium titration (SET), Fab, monovalent
pKd: −log10 of the molar value.

binder	readout qualifier	pKd
Maelle, Fab (Fab, V domains shown) VH: QVQLQQSGPGLVKPSQTLSLTCAISGESVSTSSAAWNWIRQSPSRGLEWLGRTYYRSKWKKEYAQSVKSRITINPDTSKNQFSLQLNSVTPEDTAVYYCARDRYYYSAFDYWGQGTLVTVSS VL: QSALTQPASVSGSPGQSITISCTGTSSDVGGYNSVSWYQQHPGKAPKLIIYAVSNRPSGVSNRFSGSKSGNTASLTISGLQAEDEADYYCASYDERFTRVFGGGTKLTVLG	=	10.89
Satine, Fab (Fab, V domains shown) VH: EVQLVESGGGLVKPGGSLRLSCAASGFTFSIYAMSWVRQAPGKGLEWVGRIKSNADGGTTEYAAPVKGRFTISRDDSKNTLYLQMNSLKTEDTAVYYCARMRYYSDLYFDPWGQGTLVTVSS VL: SYELTQPPSVSVSPGQTASITCSGDKLGQKYVSWYQQKPGQSPVLVISQDRKRPSGIPERFSGSNSGNTATLTISGTQAEDEADYYCQTWTHLQWVFGGGTKLTVLG	>	11.70
Camille, Fab (Fab, V domains shown) VH: QVQLQQSGPGLVKPSQTLSLTCAISGESVSTSSAAWNWIRQSPSRGLEWLGRTYYRSKWKHEYAVSVKSRITINPDTSKNQFSLQLNSVTPEDTAVYYCARDRYYYSAFDYWGQGTLVTVSS VL: QSALTQPASVSGSPGQSITISCTGTSSDVGGYNSVSWYQQHPGKAPKLLIYAVSNRPSGVSNRFSGSKSGNTASLTISGLQAEDEADYYCASYDERFTRVFGGGTKLTVLG	=	10.74

Reference for the values: patent US20180057581A1
